System: HASMC
assay.protocol: Toxicity in HASMC assessed as cell viability using calcein AM and ethidium homodimer-1 by LIVE/DEAD assay
Format: cell-based
test.context: human
observation.type: Activity

CCCCCCCCNc1cccc(NCCCCCCCC)c1[N+](=O)[O-] ... Non-toxic
CCCCCCCCCNc1ccc([N+](=O)[O-])c(NCCCCCCCCC)c1 ... Non-toxic
CCCCCCCCCNc1cccc(NCCCCCCCCC)c1[N+](=O)[O-] ... Toxic
CCCCCCCCCCNc1ccc([N+](=O)[O-])c(NCCCCCCCCCC)c1 ... Non-toxic

====

Tested on: HASMC
assay.protocol: Induction of nitric oxide release in HASMC at 5 to 20 uM after 60 mins by DAF-FM DA assay
Format: functional, cell-based
test.context: Homo sapiens
The source made the active and inactive calls. The rule behind the calls is not given here.
Hi there, use one of these labels in your reply, thanks! 1 = active, 0 = inactive

Status in this test for `CCCCCCCCN(N=O)c1ccc([N+](=O)[O-])c(N(CCCCCCCC)N=O)c1` ?
1

Status in this test for `CCCCCCCCCCN(N=O)c1cccc(N(CCCCCCCCCC)N=O)c1[N+](=O)[O-]` ?
1

Status in this test for `CCCCCCCCCCN(N=O)c1ccc([N+](=O)[O-])c(N(CCCCCCCCCC)N=O)c1` ?
1

Status in this test for `CCCCCCCCCN(N=O)c1cccc(N(CCCCCCCCC)N=O)c1[N+](=O)[O-]` ?
1

Status in this test for `CCCCCCCCCN(N=O)c1ccc([N+](=O)[O-])c(N(CCCCCCCCC)N=O)c1` ?
1

Status in this test for `CCCCCCN(N=O)c1ccc([N+](=O)[O-])c(N(CCCCCC)N=O)c1` ?
1

Status in this test for `CCCCCCCCN(N=O)c1cccc(N(CCCCCCCC)N=O)c1[N+](=O)[O-]` ?
1

Status in this test for `CCCCCCCN(N=O)c1cccc(N(CCCCCCC)N=O)c1[N+](=O)[O-]` ?
0

Status in this test for `CCCCCCCN(N=O)c1ccc([N+](=O)[O-])c(N(CCCCCCC)N=O)c1` ?
1

Status in this test for `CCCCCCN(N=O)c1cccc(N(CCCCCC)N=O)c1[N+](=O)[O-]` ?
1

====

Please respond with reported Activity for every item in the list.
assay.protocol: Induction of nitric oxide release in phosphate buffered saline up to 20 days by Griess reagent test in presence of glutathione
Assay type: physicochemical
test.context: buffer, 480 h
Kindly provide the numeric value in % only, without the unit symbol.

I am curious: what Activity value has been reported for `CCCCCCCCCN(N=O)c1ccc([N+](=O)[O-])c(N(CCCCCCCCC)N=O)c1` ?
1.29

I am curious: what Activity value has been reported for `CCCCCCCCCCN(N=O)c1cccc(N(CCCCCCCCCC)N=O)c1[N+](=O)[O-]` ?
1.9

I am curious: what Activity value has been reported for `CCCCCCN(N=O)c1ccc([N+](=O)[O-])c(N(CCCCCC)N=O)c1` ?
0.84

I am curious: what Activity value has been reported for `CCCCCCCCN(N=O)c1cccc(N(CCCCCCCC)N=O)c1[N+](=O)[O-]` ?
1.32

====

Please respond with reported Activity for every item in the list.
assay.protocol: Induction of nitric oxide release in phosphate buffered saline up to 20 days by Griess reagent test
Type: physicochemical
Parameters: concentration or dose not given beside the values
test.context: buffer, 480 h
Kindly provide the numeric value in % only, without the unit symbol.

I am curious: what Activity value has been reported for `CCCCCCCN(N=O)c1cccc(N(CCCCCCC)N=O)c1[N+](=O)[O-]` ?
2.02

I am curious: what Activity value has been reported for `CCCCCCCCCN(N=O)c1cccc(N(CCCCCCCCC)N=O)c1[N+](=O)[O-]` ?
2.32

I am curious: what Activity value has been reported for `CCCCCCN(N=O)c1ccc([N+](=O)[O-])c(N(CCCCCC)N=O)c1` ?
2.34

I am curious: what Activity value has been reported for `CCCCCCCCN(N=O)c1cccc(N(CCCCCCCC)N=O)c1[N+](=O)[O-]` ?
2.13

I am curious: what Activity value has been reported for `CCCCCCCCCCN(N=O)c1ccc([N+](=O)[O-])c(N(CCCCCCCCCC)N=O)c1` ?
3

I am curious: what Activity value has been reported for `CCCCCCCCCN(N=O)c1ccc([N+](=O)[O-])c(N(CCCCCCCCC)N=O)c1` ?
2.83

I am curious: what Activity value has been reported for `CCCCCCCN(N=O)c1ccc([N+](=O)[O-])c(N(CCCCCCC)N=O)c1` ?
2.48

I am curious: what Activity value has been reported for `CCCCCCN(N=O)c1cccc(N(CCCCCC)N=O)c1[N+](=O)[O-]` ?
1.85

I am curious: what Activity value has been reported for `CCCCCCCCN(N=O)c1ccc([N+](=O)[O-])c(N(CCCCCCCC)N=O)c1` ?
2.63

I am curious: what Activity value has been reported for `CCCCCCCCCCN(N=O)c1cccc(N(CCCCCCCCCC)N=O)c1[N+](=O)[O-]` ?
2.6

====

assay.protocol: Toxicity in HASMC assessed as cell viability at 20 uM after 96 hrs by MTT assay relative to control
Format: cell-based
test.context: human, HASMC cells; read-out: Activity
Please respond with reported viability at 96 h, 20 µM for every item in the list.
Kindly provide the numeric value in % only, without the unit symbol.

I am curious: what viability at 96 h, 20 µM value has been reported for `CCCCCCCCNc1ccc([N+](=O)[O-])c(NCCCCCCCC)c1` ?
85.4

I am curious: what viability at 96 h, 20 µM value has been reported for `CCCCCCCCNc1cccc(NCCCCCCCC)c1[N+](=O)[O-]` ?
82.8

I am curious: what viability at 96 h, 20 µM value has been reported for `CCCCCCCNc1cccc(NCCCCCCC)c1[N+](=O)[O-]` ?
80

I am curious: what viability at 96 h, 20 µM value has been reported for `CCCCCCCCCNc1ccc([N+](=O)[O-])c(NCCCCCCCCC)c1` ?
86

I am curious: what viability at 96 h, 20 µM value has been reported for `CCCCCCNc1cccc(NCCCCCC)c1[N+](=O)[O-]` ?
81

I am curious: what viability at 96 h, 20 µM value has been reported for `CCCCCCCCCCNc1cccc(NCCCCCCCCCC)c1[N+](=O)[O-]` ?
65

I am curious: what viability at 96 h, 20 µM value has been reported for `CCCCCCCCCNc1cccc(NCCCCCCCCC)c1[N+](=O)[O-]` ?
68

I am curious: what viability at 96 h, 20 µM value has been reported for `CCCCCCCCCCNc1ccc([N+](=O)[O-])c(NCCCCCCCCCC)c1` ?
84

I am curious: what viability at 96 h, 20 µM value has been reported for `CCCCCCNc1ccc([N+](=O)[O-])c(NCCCCCC)c1` ?
87

I am curious: what viability at 96 h, 20 µM value has been reported for `CCCCCCCNc1ccc([N+](=O)[O-])c(NCCCCCCC)c1` ?
85.6

====

assay.protocol: Toxicity in HASMC assessed as cell viability at 10 uM after 96 hrs by MTT assay relative to control
Assay type: cell-based
test.context: human, HASMC cells; read-out: Activity
observation.type: viability at 96 h, 10 µM (%)
Kindly provide the numeric value in % only, without the unit symbol.

I am curious: what viability at 96 h, 10 µM value has been reported for `CCCCCCCCCNc1cccc(NCCCCCCCCC)c1[N+](=O)[O-]` ?
73

I am curious: what viability at 96 h, 10 µM value has been reported for `CCCCCCCCCNc1ccc([N+](=O)[O-])c(NCCCCCCCCC)c1` ?
84.5

I am curious: what viability at 96 h, 10 µM value has been reported for `CCCCCCCNc1ccc([N+](=O)[O-])c(NCCCCCCC)c1` ?
86

I am curious: what viability at 96 h, 10 µM value has been reported for `CCCCCCCNc1cccc(NCCCCCCC)c1[N+](=O)[O-]` ?
81

I am curious: what viability at 96 h, 10 µM value has been reported for `CCCCCCCCCCNc1ccc([N+](=O)[O-])c(NCCCCCCCCCC)c1` ?
84

I am curious: what viability at 96 h, 10 µM value has been reported for `CCCCCCNc1cccc(NCCCCCC)c1[N+](=O)[O-]` ?
81

I am curious: what viability at 96 h, 10 µM value has been reported for `CCCCCCCCCCNc1cccc(NCCCCCCCCCC)c1[N+](=O)[O-]` ?
69

I am curious: what viability at 96 h, 10 µM value has been reported for `CCCCCCNc1ccc([N+](=O)[O-])c(NCCCCCC)c1` ?
85.9

I am curious: what viability at 96 h, 10 µM value has been reported for `CCCCCCCCNc1ccc([N+](=O)[O-])c(NCCCCCCCC)c1` ?
84

I am curious: what viability at 96 h, 10 µM value has been reported for `CCCCCCCCNc1cccc(NCCCCCCCC)c1[N+](=O)[O-]` ?
83.2
